- System: HL-60
- Assay explanation: NCI tumour cell line growth inhibition, 48 h
Active and inactive are the calls of the source. Rule as the data show it: active = GI50 up to about 1.1 µM and inactive = higher.
Property label: GI50

Reported GI50 (HL-60) for entry COc1ccc([C@H]2C=C(c3cc(F)c(Cl)cc3Cl)NC(=S)N2)cc1 is 11.3 µM (inactive)

Noted GI50 for O=C(O)CCN(CCCN(CCC(=O)O)CCC(=O)O)CCC(=O)O , tested on HL-60: > 100 µM (inactive)

GI50 on HL-60 for CCNC(=O)c1c(O)nc2ccccc2c1O is 35.6 µM (inactive)

Entry C[C@]12CC[C@@H]3c4ccc(O)cc4CC[C@H]3[C@@H]1C/C(=C\c1ccncc1)C2=O ; assay system HL-60; GI50 recorded at 10.6 µM (inactive)

HL-60 GI50 of O=C(O)c1ccc(Cc2ccccc2C(=O)O)cc1 is > 100 µM (inactive)

Tested system HL-60; GI50 recorded for Cc1cccc(C(C)C)c1N1C(=O)C(=O)C(c2nc3ccccc3o2)C(=O)C1=O was 30.3 µM (inactive)

# GI50 measured on HL-60 for item CC1(O)OC(=O)C2=C1CCC1C2CCC2(C)C(O)CCC12 (stereo not given) = > 100 µM (inactive)

// GI50 (HL-60) for C[N+](C)(C)CC(=O)N/N=C(/Cc1cc(=O)oc2cc(O)ccc12)C(=O)Nc1ccc(Cl)cc1 = > 100 µM (inactive)

Readout GI50 for O=C(/C=C1\Nc2ccccc2N=C1NC12CC3CC(CC(C3)C1)C2)c1ccc(Br)cc1 , test system HL-60, was > 10 µM (inactive)

// assay HL-60, entry C=C1c2c(cc3c(c2O)c(=O)c2ccccc2n3C)OC1(C)C , GI50 value = > 100 µM (inactive)

---

- Tested on: DMS-114
- Assay explanation: NCI tumour cell line growth inhibition, 48 h
Active and inactive are the calls of the source. Cut-off read from the data, not from the text of the source: active = GI50 up to about 1.1 µM and inactive = higher.
For each entry below, report its GI50 value.

Note to self: GI50 recorded for NC(=O)NNC/C(Cl)=C(\Cl)C(=O)O was > 100 µM (inactive)

Lookup result for O=C1OC(CC(=O)c2ccc(Cl)cc2)C(Cl)=C1Cl (configuration not stated) ; measured GI50: > 100 µM (inactive)

The molecule identified as Clc1ccc(C(c2ccc(Cl)cc2)c2ccccn2)cc1 registered its GI50 at 28.4 µM (inactive)

According to the records, this molecule COC(=O)C(=O)C1(CCC(C)=O)c2ccccc2-c2c(C)ccc(C)c21 (configuration not stated) displays GI50 of 33.7 µM (inactive)

The reported GI50 of the molecule COc1ccccc1Cc1nc(-c2ccccc2)nn(C2OC(COC(C)=O)C(OC(C)=O)C(OC(C)=O)C2OC(C)=O)c1=S (configuration not stated) was 27.6 µM (inactive)

Per the records, this molecule ( O=c1nc(NC(c2ccccc2)(c2ccccc2)c2ccccc2)ccn1CCO ) has GI50 equal to 52.7 µM (inactive)

In plain terms, COc1ccc(/C=C2\CCNC2=O)cc1 has a documented GI50 of > 100 µM (inactive)

---

- Test system: HCC 2998
- Assay explanation: NCI tumour cell line growth inhibition, 48 h
Active and inactive are the calls of the source. No stated cut-off is given here; in the data, active = GI50 up to about 1.1 µM and inactive = higher. Where a SMILES comes first, the peptide text is derived from it. The star is where a group is joined. Boc = CC(C)(C)OC(=O)*
The reply should name one outcome from 1 for active, -1 for inactive

Assay outcome for CC(C)NCCNC(=O)c1ccccc1Nc1c(Cl)cccc1Cl : what was it? -1

# fetch the recorded call for CC1(C)CS(=O)(=O)CC(C)(C)C(=N/N)/C1=N\N here -1

Outcome logged for O=c1oc2ccccc2c2nc3ccccc3cc12 in this assay: -1

Kindly provide the recorded test outcome for the following compound: O=NN1CCN=C1c1ccc([N+](=O)[O-])cc1 -1

I'd appreciate the recorded outcome for OCC1OC(NO)C(O)C(O)C1O (stereo not drawn) from this test. -1

What was the test verdict on C/C(CC(=O)Nc1ccc(NC(=O)C/C(C)=N\NC(N)=O)cc1)=N/NC(N)=O ? -1

What did this assay record as the result for N#C/C(=C\c1ccc(O)c(O)c1)C(N)=S [TYRPHOSTIN 47] ? -1

State the result this test recorded for Cc1cc2c(cc1C)N1Cc3c(ccc(C)c3C)N(C2)C1.Cc1cc2c(cc1C)N1Cc3cc(C)c(C)cc3N(C2)C1 . -1

Look up the recorded call for Clc1n[nH]c2ccccc12 in this test. -1

Please let me know the test result on file for CC(C)N(C(=O)C12C3C4C1C1C2C3C41C(O)C(C)(C)C)C(C)C (stereo not drawn) . -1

Check the results log: what was the call for CC1(O)OC(=O)C2=C1CCC1C2CCC2(C)C(O)CCC12 (stereo not drawn) ? -1

State the result this test recorded for CCOC(=O)/C=C(\C(=O)OCC)n1ccc(N)nc1=O . -1

I would be grateful if you could indicate the recorded call for CCCCCCCCCCCCNC(=S)OCCCC . -1

In this assay, the call recorded for CN1N=C2c3ccccc3CC[C@H]2C1c1ccccc1 (stereo partly drawn) was what? -1

State the result this test recorded for O=S1(=O)OC(c2ccc(O)cc2)(c2ccc(O)cc2)c2ccccc21 [PHENOLSULFONPHTHALEIN] . -1

Assay result, entry CNC(=O)CNC(=O)C(NC(=O)CNC(=O)C1CCCN1C(=O)C(C)NC(=O)C(NC(=O)OC(C)(C)C)C(C)C)C(C)C (stereo not drawn) (Boc-VAPGVG-NHMe; configuration not given here) — outcome? -1

Query: recorded result category for Cc1nc2c(sc(=S)n2-c2ccccc2)c(=O)[nH]1 in this test -1

Given O=C1C(=C2SC(c3ccccc3)(c3ccccc3)c3ccccc32)C(=O)c2ccccc21 , state the outcome it received in this test. -1

Could you kindly confirm the outcome this assay logged for CC(C)(C)N1C(C(=O)c2ccccc2)C1c1ccccc1 (stereo not drawn) ? -1

# lookup: test call for O=C1Nc2ccccc2/C1=C\c1c(Cl)[nH]c2ccccc12 1

Hey, what did the test say about Clc1sc(Cl)c2c1[C@@H](Cl)C[C@@H]2Br ? -1

Please let me know the test result on file for COc1ccc(C2C(=O)c3ccc(OC)cc3OC2c2cccnc2)cc1 (stereo not drawn) . -1

What was the test verdict on O=C1NC(Nc2cccc(Cl)c2)=N/C1=C\c1ccc(Cl)c(Cl)c1 ? -1

---

- Tested on: SF-539
- Assay explanation: NCI tumour cell line growth inhibition, 48 h
Activity calls are given as the source filed them. Cut-off read from the data, not from the text of the source: active = GI50 up to about 1.1 µM and inactive = higher.
Property label: GI50

Sample Cc1cccc(C(C)C)c1N1C(=O)C(=O)C(c2nc3ccccc3o2)C(=O)C1=O , system: SF-539. Its GI50 is > 100 µM (inactive)

# lookup: COC(=O)c1ccc(C)cc1CC1Cc2c(C)cccc2C1=O (stereo not given) on SF-539, GI50 = 8.17 µM (inactive)

The recorded GI50 with SF-539 for CC1C[C@@H]2C(=O)NC(=O)[C@@H]2c2c1c1ccccc1n2C (stereo not given in full) was > 100 µM (inactive)

Note to self: GI50 of O=S(=O)(c1ccccc1)[C@H]1[C@@H]2O[C@@H]2C[C@@H]1O with SF-539 was > 100 µM (inactive)

Reading of GI50 for COC1OC(CBr)C(OC(=O)c2ccccc2)C(O)C1Br (stereo not given) with SF-539: > 100 µM (inactive)

---

- System: UACC-62
- Assay explanation: NCI tumour cell line growth inhibition, 48 h
Calls of active or inactive are those of the source. Rule as the data show it: active = GI50 up to about 1.1 µM and inactive = higher. Where a SMILES comes first, the peptide text is derived from it.
Property label: GI50

# GI50 of COC(=O)[C@H](Cc1ccccc1)NC(=O)c1ccc(CNC(=O)/C=C/c2ccc(OCc3ccccc3)cc2)cc1 = 4.44 µM (inactive)

GI50 in this record for CC(C)NCCNC(=O)c1ccccc1Nc1c(Cl)cccc1Cl : 15.8 µM (inactive)

Briefly, GI50 measured for C(=N\N=C1NCCCN1)/c1ccc2ccccc2c1 : 13.5 µM (inactive)

response.value for CC1(C)CS(=O)(=O)CC(C)(C)C(=N/N)/C1=N\N (field: GI50) = > 100 µM (inactive)

GI50 reading for C/C(CC(=O)Nc1ccc(NC(=O)C/C(C)=N\NC(N)=O)cc1)=N/NC(N)=O : > 84.9 µM (inactive)

For c1ccc(-c2sc(-c3ccccc3)c3c2C(c2ccccc2)c2c(-c4ccccc4)sc(-c4ccccc4)c2C3c2ccccc2)cc1 (centres undefined) the compound record lists GI50 as > 100 µM (inactive)

# GI50 (compound: C[Si](C)(C)CN1C(=O)c2ccccc2C1(O)c1ccccc1 (centres undefined) ) is 62.7 µM (inactive)

Sure, the documented GI50 for Cc1nc2c(sc(=S)n2-c2ccccc2)c(=O)[nH]1 is > 100 µM (inactive)

// GI50 value for Cn1cnc([N+](=O)[O-])c1Sc1nnc(-c2cccnc2)n1C : 17.3 µM (inactive)

Entry O=C(O)C1Cc2ccccc2OC1=O (centres undefined) , GI50 reported as > 100 µM (inactive)

The reported value for C[N+]1(C)C2CC(OC(=O)C(CO)c3ccccc3)CC1C1OC12 (centres undefined) in terms of GI50 is > 100 µM (inactive)

Per the record, CN(C)c1ccc(C(=C2C=CC(=[N+](C)C)C=C2)c2c(O)c(S(=O)(=O)[O-])cc3cc(S(=O)(=O)O)ccc23)cc1 has GI50 of > 100 µM (inactive)

Short answer for CN/N=C(\C)c1c(O)cc(C)oc1=O : GI50 was > 100 µM (inactive)

// GI50 value for C=C1C(=O)c2cc3c(cc2C(c2cc(OC)c(OC)c(OC)c2)[C@@H]1C(=O)O)OCO3 (some centres undefined) : 27 µM (inactive)

Noted for CSc1c(C#N)c(N)n(-c2ccc(Cl)cc2)c(=O)c1C#N : its GI50 reads > 100 µM (inactive)

// sample Cc1ccc(-c2c(N)[n+]([O-])c3ccccc3[n+]2[O-])cc1 , its GI50 was 7.18 µM (inactive)

Measured GI50 of COc1cc2c(cc1O)[C@H](C)C(c1ccc(Cl)cc1)O2 (some centres undefined) : 21.2 µM (inactive)

Per the records, this compound ( CC(NC(=O)C(C)NC(=O)C(N)CCP(C)(=O)O)C(=O)O (centres undefined) ) has GI50 equal to > 100 µM (inactive)

Data point: CNC(=O)CNC(=O)C(NC(=O)CNC(=O)C1CCCN1C(=O)C(C)NC(=O)C(NC(C)=O)C(C)C)C(C)C (centres undefined) (Ac-VAPGVG-NHMe; configuration not given here) ; GI50 = > 100 µM (inactive)

Noted for N#C/C(N)=C(C#N)/N=C/NCc1ccccc1 : its GI50 reads 95.5 µM (inactive)

// GI50 lookup, compound = COC(=O)C(Cc1nc2ccc(Cl)cc2nc1O)/C(=N/NC(N)=O)C(=O)Nc1ccc(Cl)cc1 (centres undefined) , result: > 100 µM (inactive)

Record summary for CC1C2=C(CCCC2=O)N(c2ccc(Cl)cc2)C2=C1C(=O)CCC2 : reported GI50 = 67.1 µM (inactive)

Measured GI50 of O=C(/C=C1\Nc2ccccc2N=C1NC12CC3CC(CC(C3)C1)C2)c1ccc(Br)cc1 : > 10 µM (inactive)

Sample O=C1CC(=O)c2c(O)cc(O)c(c2O)-c2c(ccc(O)c2O)C2=CC(=O)c3c(O)cc(O)c(c3O2)-c2c1ccc(O)c2O.O=C1CC2(O)Oc3c1c(O)cc(O)c3-c1c(ccc(O)c1O)-c1cc(=O)c3c(O)cc(O)c(c3o1)-c1c2ccc(O)c1O ; GI50 observed: > 50 µM (inactive)

The measured GI50 associated with COc1ccc(Cn2c(=O)c(OS(=O)(=O)C(F)(F)F)c(C)c3cc4ccccc4cc32)cc1 reads > 100 µM (inactive)

// field: GI50; key: CN(C)[C@@H]1C(O)=C(C(N)=O)C(=O)[C@@]2(O)C(O)=C3C(=O)c4c(O)cccc4C[C@H]3C[C@@H]12 ; value = 1.72 µM (inactive)

Input N#C/C(=C\c1ccc(O)c(O)c1)C(N)=S . Output GI50: 81.5 µM (inactive)

Item: CC12CP(=O)(c3ccccc3)CC1c1ccccc1C2c1ccccc1 (centres undefined) | GI50: 29.2 µM (inactive)

# compound CCN(CC)c1ccc2cc3ccc(N(CC)CC)cc3[o+]c2c1 ; its GI50 = 1.71 µM (inactive)

Lookup result for O=C(O)c1ccc(Cc2ccccc2C(=O)O)cc1 ; measured GI50: > 100 µM (inactive)

What the record says about CC(=O)OCC1OC(n2c(N)c(C#N)c(-c3cccc(Cl)c3)c(C#N)c2=S)C(OC(C)=O)C(OC(C)=O)C1OC(C)=O (centres undefined) : GI50 is 26.9 µM (inactive)

Reported GI50 ( COC(=O)C/N=C1\NC(=S)N(Cc2ccc(OC)cc2)C12CCCC2 ) = > 100 µM (inactive)

Sample CN(C(=O)C12C3C4C1C1C4(C(=O)C45C6C7C4C4C5C6C74C)C3C12C)C(C)(C)C (centres undefined) ; GI50 observed: 48.3 µM (inactive)

Field GI50 (entry Cc1cc2c(c(S(=O)(=O)c3ccc(Cl)cc3[N+](=O)[O-])c1)NCCC2 ) reads 8.11 µM (inactive)

Record CC1(O)OC(=O)C2=C1CCC1C2CCC2(C)C(O)CCC12 (centres undefined) , field GI50: 46.3 µM (inactive)

# compound COc1ccccc1C1(c2c(OC)c(=O)c2=O)SCCCS1 ; its GI50 = > 100 µM (inactive)

Notebook: OC(c1cc(C(F)(F)F)nc2c(Cl)cc(Cl)cc12)C1CCCCN1 (centres undefined) , GI50 read as > 32.6 µM (inactive)

Consider O=[N+]([O-])C1C2C=CC(C2)[C@H]1c1ccccc1Cl (some centres undefined) . Its measured GI50 is 27.5 µM (inactive)

Query O=C1C[C@H](COCc2ccccc2)NC(=O)C[C@H](COCc2ccccc2)NC(=O)C[C@H](COCc2ccccc2)N1 yields GI50 of > 100 µM (inactive)
